- tested_target: human recombinant Monoacylglycerol Lipase (Homo sapiens, UniProt Q99685)
- experimental_details: MAGL inhibition enzymatic assay, fluorogenic substrate 7-HCA, IC50 at T=0 min or after 30 minute incubation (T=30 min)
- Type: biochemical
- condition_parameters: T = 0 min (substrate added immediately); geometric mean of 2-4 determinations unless otherwise indicated; read-out: MAGL (T = 0 min) IC50
test_readout: log10 IC50 (log10 of the value in nM)
On a log10 scale: recorded IC50, unit nM.

Examples with answers:
1) O=C(O[C@H](CO)C(F)(F)F)N1CCC2(CC1)CN(S(=O)(=O)NCc1ccccc1)CCO2 :: 1.46
2) Cc1ccc(C2COC3(CCN(C(=O)O[C@H](CO)C(F)(F)F)CC3)C2)cn1 (mixture of isomers) :: 2.54

Ask: Please report log10 IC50 for the following molecule: O=C(O[C@H](CO)C(F)(F)F)N1CCC2(CC1)CCN(C(=O)N1CCCC1)C2
Result: 2.24

Ask: Please report log10 IC50 for the following molecule: O=C(O[C@H](CO)C(F)(F)F)N1CCC2(CC1)CC(n1cccn1)CO2 (single isomer, unassigned) [Example 103]
Result: 2.52

----------
Overview of reported MAGL kinact/KI across a group of compounds:
- tested_target: human recombinant Monoacylglycerol Lipase (Homo sapiens, UniProt Q99685)
- Sequence (Q99685 1-303): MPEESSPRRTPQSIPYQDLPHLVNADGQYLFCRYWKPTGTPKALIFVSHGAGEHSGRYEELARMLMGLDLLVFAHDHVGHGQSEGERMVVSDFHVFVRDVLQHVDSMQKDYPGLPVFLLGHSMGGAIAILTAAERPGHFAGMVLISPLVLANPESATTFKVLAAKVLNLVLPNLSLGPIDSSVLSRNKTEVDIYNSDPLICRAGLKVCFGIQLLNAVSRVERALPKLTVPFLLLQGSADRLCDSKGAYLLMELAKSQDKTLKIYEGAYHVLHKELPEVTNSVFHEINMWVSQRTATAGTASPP
- experimental_details: MAGL inactivation, enzyme progress curves, kinact/KI
- Format: biochemical
- condition_parameters: from enzyme progress curves, T = 0 min protocol; geometric mean of 2-4 determinations unless otherwise indicated

Examples with answers:
1) CCc1cccc(S(=O)(=O)N2CCOC3(CCN(C(=O)O[C@H](CO)C(F)(F)F)CC3)C2)c1 :: 403739 1/s per M
2) CN(C(=O)CC1CC1)[C@H]1COC2(CCN(C(=O)O[C@H](CO)C(F)(F)F)CC2)C1 :: 1476 1/s per M
3) C#Cc1ccc(-n2ccc(C3CCN(C(=O)O[C@H](CO)C(F)(F)F)CC3)n2)cc1 :: 126124 1/s per M

Consider now this further compound.
Ask: Please report MAGL kinact/KI for the following compound: CN([C@H]1COC2(CCN(C(=O)O[C@H](CO)C(F)(F)F)CC2)C1)S(=O)(=O)c1nccs1
Result: 15516 1/s per M

----------
- tested_target: human recombinant Monoacylglycerol Lipase (Homo sapiens)
- Sequence (Q99685 1-303): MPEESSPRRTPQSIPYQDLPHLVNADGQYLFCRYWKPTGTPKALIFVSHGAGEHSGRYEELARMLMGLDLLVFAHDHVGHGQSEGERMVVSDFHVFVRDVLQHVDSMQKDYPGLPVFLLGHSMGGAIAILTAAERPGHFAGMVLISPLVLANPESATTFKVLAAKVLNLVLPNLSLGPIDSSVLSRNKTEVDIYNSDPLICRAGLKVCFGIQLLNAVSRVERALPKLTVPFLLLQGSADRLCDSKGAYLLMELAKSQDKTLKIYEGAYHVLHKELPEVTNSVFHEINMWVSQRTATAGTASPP
- experimental_details: MAGL inhibition enzymatic assay, fluorogenic substrate 7-HCA, IC50 at T=0 min or after 30 minute incubation (T=30 min)
- Type: biochemical
- condition_parameters: T = 0 min (substrate added immediately); geometric mean of 2-4 determinations unless otherwise indicated; read-out: MAGL (T = 0 min) IC50
test_readout: IC50 (µM)
Expressed in µM, but write only the number.

Examples with answers:
1. O=C(O[C@H](CO)C(F)(F)F)N1CCC2(CC1)CC(c1ccccc1)CO2 (single isomer, unassigned) [Example 96] :: 0.062
2. O=C(O[C@H](CO)C(F)(F)F)N1CCC2(CC1)CN(S(=O)(=O)CCCn1ccnc1)CCO2 [Example 56] :: 2.34
3. CN(CC1CCN(C(=O)O[C@H](CO)C(F)(F)F)CC1)S(=O)(=O)c1ccc(F)cc1 [Example 62] :: 0.067

Consider now this further molecule.
Ask: Please report IC50 for the following molecule: Cc1ccc(S(=O)(=O)N2CCOC3(CCN(C(=O)O[C@H](CO)C(F)(F)F)CC3)C2)cc1F [Example 73]
Result: 0.005

----------
- experimental_details: Prodrug in vivo pharmacokinetics in rats after intravenous administration (LC-MS-MS of prodrug and parent)
- condition_parameters: Wistar Hann, rat, in vivo, iv, 1.48 mg/kg, Vdss, Example 31 in plasma; Wistar Hann rats; IV Example 31 at 1.48 mg/kg; Mean
test_readout: Vd (L/kg)
Expressed in L/kg, but write only the number.

Ask: Please report Vd for the following molecule: O=C(O[C@H](COP(=O)([O-])[O-])C(F)(F)F)N1CCC2(CC1)C[C@@H](NS(=O)(=O)c1ccccc1)CO2.[Na+].[Na+] [Example 31]
Result: 2.23

----------
- tested_target: human recombinant Monoacylglycerol Lipase (Homo sapiens)
- experimental_details: MAGL inactivation, enzyme progress curves, kinact/KI
- Type: biochemical
- condition_parameters: from enzyme progress curves, T = 0 min protocol; geometric mean of 2-4 determinations unless otherwise indicated
test_readout: MAGL kinact/KI

Examples with answers:
1. O=C(O[C@H](CO)C(F)(F)F)N1CCC2(CC1)C[C@@H](NS(=O)(=O)c1ccccc1)CO2 :: 8588 1/s per M
2. O=C(OC(C(F)(F)F)C(F)(F)CO)N1CCC2(CC1)CN(S(=O)(=O)c1ccc(F)cc1)CCO2 (racemic) [Example 19] :: 2397 1/s per M
3. O=C(O[C@H](CO)C(F)(F)F)N1CCC2(CC1)CC(OCc1ccccc1)CO2 (mixture of isomers) :: 8426 1/s per M
4. O=C(O[C@H](CO)C(F)(F)F)N1CCC2(CC1)CC(c1ccccc1)CO2 (single isomer, unassigned) [Example 95] :: 131495 1/s per M
5. O=C(O[C@H](CO)C(F)(F)F)N1CCC2(CC1)CCN(C(=O)C1CCC(F)(F)CC1)C2 :: 2067 1/s per M
6. Cc1cnc(OC2CCN(C(=O)O[C@H](CO)C(F)(F)F)CC2)c(C)c1 :: 7304 1/s per M

Ask: Please report MAGL kinact/KI for the following compound: CC(C)N([C@H]1COC2(CCN(C(=O)O[C@H](CO)C(F)(F)F)CC2)C1)S(=O)(=O)c1ccccc1
Result: 127771 1/s per M

Ask: Please report MAGL kinact/KI for the following compound: CC(c1ccc(F)cc1)N1CCOC2(CCN(C(=O)O[C@H](CO)C(F)(F)F)CC2)C1 (single isomer, unassigned) [Example 45]
Result: 3134 1/s per M

Ask: Please report MAGL kinact/KI for the following compound: O=C(O[C@H](CO)C(F)(F)F)N1CCC2(CC1)CN(S(=O)(=O)c1ccc(F)c(F)c1)CCO2
Result: 7262 1/s per M

Ask: Please report MAGL kinact/KI for the following compound: N#Cc1cccc(C2COC3(CCN(C(=O)O[C@H](CO)C(F)(F)F)CC3)C2)c1 (mixture of isomers)
Result: 5973 1/s per M

Ask: Please report MAGL kinact/KI for the following compound: CN(C(=O)c1cccc(F)c1)[C@H]1COC2(CCN(C(=O)O[C@H](CO)C(F)(F)F)CC2)C1
Result: 3519 1/s per M

Ask: Please report MAGL kinact/KI for the following compound: O=C(O[C@H](CO)C(F)(F)F)N1CCC2(CC1)CC(c1ccc(F)nc1)CO2 (mixture of isomers)
Result: 1516 1/s per M

Ask: Please report MAGL kinact/KI for the following compound: CN([C@H]1COC2(CCN(C(=O)O[C@H](CO)C(F)(F)F)CC2)C1)S(=O)(=O)c1ccccc1
Result: 44421 1/s per M

Ask: Please report MAGL kinact/KI for the following compound: O=C(O[C@H](CO)C(F)(F)F)N1CCC2(CC1)CN(S(=O)(=O)c1ccccc1F)CCO2
Result: 49166 1/s per M

Ask: Please report MAGL kinact/KI for the following compound: O=C(O[C@H](CO)C(F)(F)F)N1CCC2(CC1)CN(S(=O)(=O)c1ccccc1)CCO2
Result: 29124 1/s per M

----------
- tested_target: human recombinant Monoacylglycerol Lipase (Homo sapiens)
- experimental_details: MAGL inhibition enzymatic assay, fluorogenic substrate 7-HCA, IC50 at T=0 min or after 30 minute incubation (T=30 min)
- Type: biochemical
- condition_parameters: T = 30 min (30 minute incubation); geometric mean of 2-4 determinations unless otherwise indicated; read-out: MAGL (T = 30 min) IC50
test_readout: IC50

1) O=C(O[C@H](CO)C(F)(F)F)N1CCC2(CC1)CC(c1cccc(Cl)c1)CO2 (mixture of isomers) [Example 119] :: 0.003 µM

Ask: Please report IC50 for the following compound: CN(C1COC2(CCN(C(=O)O[C@H](CO)C(F)(F)F)CC2)C1)S(=O)(=O)c1cccc(F)c1 (single isomer, unassigned) [Example 109]
Result: 0.002 µM

Ask: Please report IC50 for the following compound: O=C(O[C@H](CO)C(F)(F)F)N1CCC2(CC1)CCN(S(=O)(=O)c1cccnc1)C2 [Example 135]
Result: 0.013 µM

Ask: Please report IC50 for the following compound: Cc1ccc(S(=O)(=O)N2CCOC3(CCN(C(=O)O[C@H](CO)C(F)(F)F)CC3)C2)cc1F [Example 73]
Result: 0.001 µM

Ask: Please report IC50 for the following compound: O=C(O[C@H](CO)C(F)(F)F)N1CCC2(CC1)CCN(C(=O)N1CCCC1)C2 [Example 133]
Result: 0.02 µM

Ask: Please report IC50 for the following compound: O=C(O[C@H](CO)C(F)(F)F)N1CCC2(CC1)CN(S(=O)(=O)CCCn1ccnc1)CCO2 [Example 56]
Result: 0.167 µM

Ask: Please report IC50 for the following compound: O=C(O[C@H](COP(=O)(O)O)C(F)(F)F)N1CCC2(CC1)CN(S(=O)(=O)c1ccc(F)cc1)CCO2 [Example 33]
Result: > 3 µM

Ask: Please report IC50 for the following compound: O=C(O)C(F)(F)F.O=C(O[C@H](CO)C(F)(F)F)N1CCC2(CC1)CC(c1ccc(F)cn1)CO2 (mixture of isomers) [Example 97, trifluoroacetate salt]
Result: 0.02 µM

Ask: Please report IC50 for the following compound: O=C(O[C@H](CO)C(F)(F)F)N1CCC2(CC1)CCN(C(=O)c1nccs1)C2 [Example 125]
Result: 0.007 µM

Ask: Please report IC50 for the following compound: O=C(O[C@H](CO)C(F)(F)F)N1CCC2(CC1)CC(n1cccn1)CO2 (single isomer, unassigned) [Example 103]
Result: 0.03 µM

Ask: Please report IC50 for the following compound: CN(C(=O)c1ccccn1)[C@H]1COC2(CCN(C(=O)O[C@H](CO)C(F)(F)F)CC2)C1 [Example 146]
Result: 0.048 µM

Ask: Please report IC50 for the following compound: O=C(O[C@H](CO)C(F)(F)F)N1CCC2(CC1)CC(Oc1ccccn1)CO2 (single isomer, unassigned) [Example 130]
Result: 0.006 µM

Ask: Please report IC50 for the following compound: C#Cc1ccc(-n2ccc(C3CCN(C(=O)O[C@H](CO)C(F)(F)F)CC3)n2)cc1 [Example 80]
Result: 0.001 µM

Ask: Please report IC50 for the following compound: O=C(O[C@H](CO)C(F)(F)F)N1CCC2(CC1)CN(S(=O)(=O)C1CCOCC1)CCO2 [Example 49]
Result: 0.654 µM
